experiment: Toxicity liver stage against HepG2, at 10uM; format: cell-based; design: test concentration 10 uM, cell line HepG2-A16-CD81EGFP; conditions: human, HepG2-A16-CD81EGFP cells; read-out: INHIBITION
MEASURED ATTRIBUTE: cytotoxicity at 10 µM (%)
Hi! Could you send only the number? It should be in %, unit omitted.

Input line: Query cytotoxicity at 10 µM for O=C(NC1CCN(Cc2ccc(F)cc2)CC1)c1ccc2c(c1)CCC2
Output line: 2.55

Input line: Query cytotoxicity at 10 µM for CCOc1ccccc1CNCC1CCN(CC(C)O)CC1 (stereo unspecified)
Output line: -9.04

Input line: Query cytotoxicity at 10 µM for CC(=O)NCC(=O)N1C[C@@H]2CC[C@H](Oc3ccccc3Cl)[C@@H]2C1
Output line: 9.16

Input line: Query cytotoxicity at 10 µM for CCOC(C)c1nc(CN2CCNCC2)cs1 (stereo unspecified)
Output line: -13.3

Input line: Query cytotoxicity at 10 µM for c1ccc(Cc2nnc(CN3CCc4cncnc4C3)o2)cc1
Output line: -4.48

Input line: Query cytotoxicity at 10 µM for CC[C@@H]1N(Cc2cccnc2)CCC[C@]12CCC(=O)N2C
Output line: -0.213

Input line: Query cytotoxicity at 10 µM for CCn1c(N)nc2cc(C(=O)NCCc3ccncc3)cnc21
Output line: 1.22

Input line: Query cytotoxicity at 10 µM for CC(Cn1cncn1)NC1CCN(Cc2cccc(O)c2)CC1 (stereo unspecified)
Output line: 2.64

Input line: Query cytotoxicity at 10 µM for CC(C)(C)c1cnc(CNc2cccc(Cn3cnnc3)c2)o1
Output line: 2.72

Input line: Query cytotoxicity at 10 µM for CN(C)CCO[C@H]1CN(C(=O)c2ccc[nH]2)[C@@H]2COC[C@H]12
Output line: 5.06

Input line: Query cytotoxicity at 10 µM for Cc1nnc(C2CCN(c3ncccn3)CC2)o1
Output line: 10.8

The reported numbers originate from ChEMBL document CHEMBL4513216.
